- TESTED_SYSTEM: dephosphorylated FGFR1 (SEQ ID NO: 1, amino acids 458 to 765) (Homo sapiens (Human), UniProt P11362)
- Sequence (P11362 458-765): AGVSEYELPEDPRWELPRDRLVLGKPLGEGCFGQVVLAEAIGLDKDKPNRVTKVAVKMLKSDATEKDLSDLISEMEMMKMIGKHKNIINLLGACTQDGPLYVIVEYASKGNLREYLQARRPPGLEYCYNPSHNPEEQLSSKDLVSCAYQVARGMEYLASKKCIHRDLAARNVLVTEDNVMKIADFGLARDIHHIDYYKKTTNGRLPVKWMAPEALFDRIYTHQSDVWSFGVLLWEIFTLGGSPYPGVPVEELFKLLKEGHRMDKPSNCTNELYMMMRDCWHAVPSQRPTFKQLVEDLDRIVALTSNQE
RECORDED_METRIC: pIC50
Please keep in mind that pIC50 is minus log10 of the molar concentration; only the number is needed.

Below are worked cases with known answers.
C=CC(=O)N1CC(C)(CN2CCC(n3ncc(-c4cc(OC)c5c(C#N)cnn5c4)c3C)CC2)C1 [Example 90]; 6.42
C=CC(=O)N1CCC2(CC1)CC(C(=O)N1CCC(n3cc(-c4cc(OC)c5c(C#N)cnn5c4)cn3)CC1)C2 [Example 48]; 6.96
C=CC(=O)N1CCC[C@H](C(=O)N2CC[C@H](n3cc(-c4cc(OC)c5c(C#N)cnn5c4)cn3)C2)C1 [Example 63]; 6.70
C=CC(=O)N[C@H]1C[C@H](C(=O)N2CC(n3cc(-c4cc(OC)c5c(C#N)cnn5c4)cn3)C2)C1 [Example 79]; 6.35
C=CC(=O)N1CCC(F)(C(=O)N2CCC(n3cc(-c4cc(OC)c5c(C#N)cnn5c4)cn3)CC2)C1 (stereo not drawn) [Example 30]; 7.29

pIC50 for C=CC(=O)N1C2COCC1CN(C(=O)N1CCC(n3cc(-c4cc(OC)c5c(C#N)cnn5c4)cn3)CC1)C2 [Example 3] is 7.36

* * *

- TESTED_SYSTEM: HEK-293 cells transfected with dox-inducible human wild type FGFR3 (Homo sapiens (Human), UniProt P22607)
- Sequence (P22607 23-806): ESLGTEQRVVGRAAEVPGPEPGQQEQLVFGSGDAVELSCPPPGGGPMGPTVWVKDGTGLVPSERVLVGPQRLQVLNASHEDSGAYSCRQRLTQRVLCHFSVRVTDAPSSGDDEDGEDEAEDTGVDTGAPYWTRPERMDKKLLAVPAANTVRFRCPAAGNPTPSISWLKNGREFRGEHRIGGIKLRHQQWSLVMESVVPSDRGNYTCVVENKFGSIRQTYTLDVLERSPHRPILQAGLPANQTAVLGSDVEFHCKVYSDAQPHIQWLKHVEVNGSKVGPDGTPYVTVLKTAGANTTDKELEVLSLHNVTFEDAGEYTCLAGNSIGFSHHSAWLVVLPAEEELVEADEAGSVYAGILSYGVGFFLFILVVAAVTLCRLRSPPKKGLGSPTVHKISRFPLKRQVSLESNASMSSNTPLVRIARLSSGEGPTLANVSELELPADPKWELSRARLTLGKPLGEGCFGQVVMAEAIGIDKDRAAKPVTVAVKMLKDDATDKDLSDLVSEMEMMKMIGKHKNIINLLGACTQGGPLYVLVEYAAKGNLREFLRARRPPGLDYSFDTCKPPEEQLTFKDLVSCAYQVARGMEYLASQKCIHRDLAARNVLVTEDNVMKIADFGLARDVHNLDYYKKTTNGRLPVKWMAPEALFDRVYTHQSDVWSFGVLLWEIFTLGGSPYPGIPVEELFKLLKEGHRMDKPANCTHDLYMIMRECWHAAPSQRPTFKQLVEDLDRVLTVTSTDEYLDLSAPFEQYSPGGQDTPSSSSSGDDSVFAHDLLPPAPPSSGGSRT
- ASSAY_PROCEDURE: FGFR3 pERK cell assay
- Format: cell-based
- MEASUREMENT_SETUP: HEK-293 dox-inducible FGFR3, 1 hour compound, 100 ng/ml FGF-acidic; maximum concentration 5 μM
Catalogue of pIC50 values
Please keep in mind that pIC50 is minus log10 of the molar concentration; only the number is needed.

Example entries and their recorded answers appear below.
C=CC(=O)N1CC(C)(C(=O)N2CCC(n3ncc(-c4cc(OC)c5c(C#N)cnn5c4)c3C)CC2)C1; 6.80
C=CC(=O)N1CC(C(=O)N2CC3(C2)CN(c2ccc(-c4cc(OC)c5c(C#N)cnn5c4)cn2)C3)C1; 6.84
C=CC(=O)N1CC(C(=O)N2CCC(n3cc(-c4cc(OC)c5c(C#N)cnn5c4)cn3)CC2)C1C (stereo not shown); 7.11

Value of measured pIC50 for the entry CC#CC(=O)N1CC(F)(C(=O)N2CCC(n3ncc(-c4cc(OC)c5c(C#N)cnn5c4)c3C)CC2)C1 : 7.04

# compound C=CC(=O)Nc1ccc(C(=O)N2CC[C@@H](n3cc(-c4cc(OC)c5c(C#N)cnn5c4)cn3)C2)cc1 ; its pIC50 = 7.15

Item: C=C(F)C(=O)N1CC(C(=O)N2CCC(n3cc(-c4cc(OC)c5c(C#N)cnn5c4)cn3)CC2)C1 | pIC50: 6.98

The measured pIC50 associated with C=CC(=O)N1CC(OC)(C(=O)N2CCC(n3nc(C)c(-c4cc(OC)c5c(C#N)cnn5c4)c3C)CC2)C1 reads 7.01

* * *

Examples of compounds with documented IC50 follow.
- TESTED_SYSTEM: HEK-293 cells transfected with dox-inducible human wild type FGFR1 (Homo sapiens (Human), UniProt P11362)
- Sequence (P11362 22-822): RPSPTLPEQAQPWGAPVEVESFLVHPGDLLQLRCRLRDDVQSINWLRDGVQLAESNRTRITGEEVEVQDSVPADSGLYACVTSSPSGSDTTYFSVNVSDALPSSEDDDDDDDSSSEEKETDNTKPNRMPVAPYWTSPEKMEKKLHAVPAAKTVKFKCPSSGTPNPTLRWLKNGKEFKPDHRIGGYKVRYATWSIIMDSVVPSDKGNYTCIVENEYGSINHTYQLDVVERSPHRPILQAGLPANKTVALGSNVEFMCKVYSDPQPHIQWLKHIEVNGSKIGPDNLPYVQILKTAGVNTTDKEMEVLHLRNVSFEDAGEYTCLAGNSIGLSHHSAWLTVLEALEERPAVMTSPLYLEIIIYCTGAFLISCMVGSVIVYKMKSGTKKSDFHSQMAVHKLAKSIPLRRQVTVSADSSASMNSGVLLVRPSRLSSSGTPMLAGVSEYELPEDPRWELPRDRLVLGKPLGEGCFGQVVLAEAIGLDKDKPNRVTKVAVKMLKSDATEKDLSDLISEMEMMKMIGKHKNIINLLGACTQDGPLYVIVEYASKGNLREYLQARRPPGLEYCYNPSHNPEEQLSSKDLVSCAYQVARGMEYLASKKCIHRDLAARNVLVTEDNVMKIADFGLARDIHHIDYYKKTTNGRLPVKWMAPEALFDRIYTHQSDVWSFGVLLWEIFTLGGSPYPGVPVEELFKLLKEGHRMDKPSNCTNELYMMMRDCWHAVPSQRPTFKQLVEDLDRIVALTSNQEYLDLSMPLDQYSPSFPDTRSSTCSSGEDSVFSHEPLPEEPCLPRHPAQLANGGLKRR
- ASSAY_PROCEDURE: FGFR1 pERK cell assay
- Type: cell-based
- MEASUREMENT_SETUP: HEK-293 dox-inducible FGFR1, 1 hour compound, 100 ng/ml FGF-acidic; maximum concentration 5 μM
Your answer is read as µM, so omit the unit and give the number.

Below are worked cases with known answers.
C=CC(=O)N1C2COCC1CN(C(=O)N1CCC(n3cc(-c4cc(OC)c5c(C#N)cnn5c4)cn3)CC1)C2; 0.87
C=CC(=O)N1CC(S(=O)(=O)N2CCC(n3cc(-c4cc(OC)c5c(C#N)cnn5c4)cn3)CC2)C1; 0.096

Switching to the query record.
Value of measured IC50 for the entry C=CC(=O)N1CCN(C(=O)N2CCC(n3cc(-c4cc(OC)c5c(C#N)cnn5c4)cn3)CC2)C[C@@H]1CC#N : 0.342

Values were extracted from patent US12180207B2.
